# experimental_protocol: Comments (NB not yet translated). [column 'COMMENTAIRES' in source]
# measurement_setup: human

{"given_smiles": "CC[C@H](c1ccc(O)cc1)[C@@H](CC)c1ccc(O)cc1", "Hepatotoxicity (comment)": "NASH"}

----------
# measurement_setup: human
observable: Hepatotoxicity (severe hepatitis)
Answer using only a numeral; do not append any unit.

Consider the following illustrative entries.
{"compound": "CCN1CC(CCN2CCOCC2)C(c2ccccc2)(c2ccccc2)C1=O (centres undefined)", "Hepatotoxicity (severe hepatitis)": 0}
{"compound": "Nc1ccc(/N=N/c2ccccc2)c(N)n1", "Hepatotoxicity (severe hepatitis)": 0}
{"compound": "COc1ccc2c(c1)N(C[C@H](C)CN(C)C)c1ccccc1S2", "Hepatotoxicity (severe hepatitis)": 0}
{"compound": "CCOC(=O)[C@H](CCc1ccccc1)N[C@@H](C)C(=O)N(CC(=O)O)C1Cc2ccccc2C1", "Hepatotoxicity (severe hepatitis)": 0}
{"compound": "CC(C)=CCN1CC[C@]2(C)c3cc(O)ccc3C[C@H]1[C@H]2C [(+)-PENTAZOCINE]", "Hepatotoxicity (severe hepatitis)": 0}
{"compound": "O=C1Nc2ccc(Cl)cc2C(c2ccccc2Cl)=NC1O (centres undefined)", "Hepatotoxicity (severe hepatitis)": 0}
{"compound": "C#C[C@]1(O)CC[C@H]2[C@@H]3CCC4=CC(=O)CCC4=C3C=C[C@@]21CC", "Hepatotoxicity (severe hepatitis)": 0}
{"compound": "COc1cccc2c1C(=O)c1c(O)c3c(c(O)c1C2=O)C[C@@](O)(C(=O)CO)C[C@@H]3O[C@H]1C[C@H](N)[C@H](O)[C@H](C)O1", "Hepatotoxicity (severe hepatitis)": 4}

## Input Please report the measured Hepatotoxicity (severe hepatitis) for "O=C(O)COC(=O)Cc1ccccc1Nc1c(Cl)cccc1Cl"
## Output 0

## Input Determine from records and report Hepatotoxicity (severe hepatitis) for "COc1cc2c(c(OC)c1OC)-c1ccc(OC)c(=O)cc1[C@@H](NC(C)=O)CC2"
## Output 0

## Input Identify measured Hepatotoxicity (severe hepatitis) associated with "Cc1[nH]cnc1CSCCNc1ncc(Cc2ccc3c(c2)OCO3)c(=O)[nH]1"
## Output 0

## Input Could you please provide reported Hepatotoxicity (severe hepatitis) for "O=C(O)c1cccnc1Nc1cccc(C(F)(F)F)c1" ? Thanks!
## Output 2

## Input Assign Hepatotoxicity (severe hepatitis) to the following record: "c1ccc2[nH]c(-c3cscn3)nc2c1"
## Output 0

----------
# measurement_setup: human
Reported Hepatotoxicity (severe hepatitis) values for the following molecules.
Provide a numeric answer; units are not to be included.

Record excerpt, results attached:
{"molecule": "Cc1nnc2n1-c1ccc(Cl)cc1C(c1ccccc1)=NC2", "Hepatotoxicity (severe hepatitis)": 1}
{"molecule": "COc1ccc(OC[C@H]2CN(C)CC[C@@H]2c2ccccc2)cc1", "Hepatotoxicity (severe hepatitis)": 1}
{"molecule": "Cc1nccn1CC1CCc2c(c3ccccc3n2C)C1=O (stereo not given)", "Hepatotoxicity (severe hepatitis)": 0}

## Input Input "CN1CCN(CCCN2c3ccccc3Sc3ccc(C(F)(F)F)cc32)CC1" , output reported Hepatotoxicity (severe hepatitis).
## Output 0

## Input Provide Hepatotoxicity (severe hepatitis) value for the following molecule: "CC(C)c1c(C(=O)Nc2ccccc2)c(-c2ccccc2)c(-c2ccc(F)cc2)n1CC[C@@H](O)C[C@@H](O)CC(=O)O"
## Output 1
